Measured values drawn from patent US4690919A for this set.

Item-by-item account of MIC
- Test system: Klebsiella pneumoniae IFO 3512
- assay-overview: Antibacterial activity (MIC), standard method of Japan Society of Chemotherapy
- Format: cell-based
- measurement-parameters: IFO3512; Klebsiella pneumoniae IFO 3512; read-out: minimum inhibitory concentration (MIC)

INSERT INTO measurements (compound, target, endpoint_value) VALUES
  ('CCCN(CCC)c1ccc2nc3c4c5c6c(C)c(O)c4c(=O)c(c-3oc2c1)NC(=O)C(C)=CC=CC(C)C(O)C(C)C(O)C(C)C(OC(C)=O)C(C)C(OC)C=COC(C)(O6)C5=O (stereo not drawn) [compound 4]', 'Klebsiella pneumoniae IFO 3512', '> 10 µg/mL'),
  ('COC1C=COC2(C)Oc3c(C)c(O)c4c(=O)c(c5oc6cc(N7CCCC(C)(C)C7)ccc6nc-5c4c3C2=O)NC(=O)C(C)=CC=CC(C)C(O)C(C)C(O)C(C)C(OC(C)=O)C1C (stereo not drawn) [compound 27]', 'Klebsiella pneumoniae IFO 3512', '> 10 µg/mL'),
  ('COC1C=COC2(C)Oc3c(C)c(O)c4c(=O)c(c5oc6cc(N7CCC(C)CC7)ccc6nc-5c4c3C2=O)NC(=O)C(C)=CC=CC(C)C(O)C(C)C(O)C(C)C(OC(C)=O)C1C (stereo not drawn) [compound 24]', 'Klebsiella pneumoniae IFO 3512', '> 10 µg/mL'),
  ('COC1C=COC2(C)Oc3c(C)c(O)c4c(=O)c(c5oc6cc(N7CCCC(C)C7)ccc6nc-5c4c3C2=O)NC(=O)C(C)=CC=CC(C)C(O)C(C)C(O)C(C)C(OC(C)=O)C1C (stereo not drawn) [compound 23]', 'Klebsiella pneumoniae IFO 3512', '> 10 µg/mL'),
  ('COC1C=COC2(C)Oc3c(C)c(O)c4c(=O)c(c5oc6cc(N(C)C7CCCCC7)ccc6nc-5c4c3C2=O)NC(=O)C(C)=CC=CC(C)C(O)C(C)C(O)C(C)C(OC(C)=O)C1C (stereo not drawn) [compound 12]', 'Klebsiella pneumoniae IFO 3512', '> 10 µg/mL');

Q) Which MIC is reported for this compound? COC1C=COC2(C)Oc3c(C)c(O)c4c(=O)c(c5oc6cc(N7CCCC7)cc(O)c6nc-5c4c3C2=O)NC(=O)C(C)=CC=CC(C)C(O)C(C)C(O)C(C)C(OC(C)=O)C1C (stereo not drawn) [compound 46]
A) > 10 µg/mL

Q) Which MIC is reported for this compound? COC1C=COC2(C)Oc3c(C)c(O)c4c(=O)c(c5oc6cc(N7CC=CCC7)ccc6nc-5c4c3C2=O)NC(=O)C(C)=CC=CC(C)C(O)C(C)C(O)C(C)C(OC(C)=O)C1C (stereo not drawn) [compound 37]
A) > 10 µg/mL

Q) Which MIC is reported for this compound? COC1C=COC2(C)Oc3c(C)c(O)c4c(=O)c(c5oc6cc(N7CCCCCC7)ccc6nc-5c4c3C2=O)NC(=O)C(C)=CC=CC(C)C(O)C(C)C(O)C(C)C(OC(C)=O)C1C (stereo not drawn) [compound 20]
A) > 10 µg/mL

Q) Which MIC is reported for this compound? CCN(CC)C(=O)C1CCCN(c2ccc3nc4c5c6c7c(C)c(O)c5c(=O)c(c-4oc3c2)NC(=O)C(C)=CC=CC(C)C(O)C(C)C(O)C(C)C(OC(C)=O)C(C)C(OC)C=COC(C)(O7)C6=O)C1 (stereo not drawn) [compound 31]
A) > 10 µg/mL
